Reported HAI titer, 0 Rh- RBC values follow for various binders
- assayTarget: T1, Hu/NoV/GI.1/Norwalk/1968/U.S. VLP (human norovirus GI.1, UniProt Q83884 1-530 (Norovirus (strain entry), limits assumed))
- T1 sequence (looked up): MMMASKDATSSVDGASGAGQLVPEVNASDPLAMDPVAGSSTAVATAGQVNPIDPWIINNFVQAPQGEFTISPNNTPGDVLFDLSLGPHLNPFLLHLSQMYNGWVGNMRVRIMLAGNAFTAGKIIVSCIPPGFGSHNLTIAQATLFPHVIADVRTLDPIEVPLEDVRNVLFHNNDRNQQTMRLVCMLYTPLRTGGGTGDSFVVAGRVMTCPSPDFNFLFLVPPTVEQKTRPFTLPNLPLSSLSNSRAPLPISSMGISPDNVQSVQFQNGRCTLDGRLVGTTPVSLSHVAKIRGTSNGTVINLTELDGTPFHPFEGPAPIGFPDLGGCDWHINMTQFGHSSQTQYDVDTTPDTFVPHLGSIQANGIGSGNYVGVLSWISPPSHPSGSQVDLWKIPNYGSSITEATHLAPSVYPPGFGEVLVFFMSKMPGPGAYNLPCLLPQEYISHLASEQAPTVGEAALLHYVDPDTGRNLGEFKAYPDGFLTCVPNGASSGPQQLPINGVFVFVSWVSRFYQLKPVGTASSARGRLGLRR
- protocolNotes: cell-based or functional assay

{"binder": "VHH 13.1 (VHH, llama VHH, Norwalk library, subtractive biopanning; His6 tag; also called 13.2; clone 13) VHH: QVKLQESGGGWVQAGGSLRLSCAASALTASITTMGWFRQTPEKEREFLAAINWTGDYKYYADSVKGRFTISRDNAKNTVDLQMNQLKPEDTAVYYCAASKIRNDIYLNDYTWYQYWGQGTQVTVSS", "unitAbbreviation": "µg/mL", "HAI titer, 0 Rh- RBC": 0.19}
{"binder": "VHH 7.3 (VHH, llama VHH, Norwalk library; pHEN6, C-terminal His6 tag; also called clone 7.3) VHH: QVKLQESGGGLVQPGGSLRLSCTASRSIFTRAMAWYRQAPGKQRELVAAIDSGDRTHYADSVKGRFTISRNNAKDTLYLQMNSLKSEDTAVYYCNANLGALLDYWGQGTQVTVSS", "unitAbbreviation": "µg/mL", "HAI titer, 0 Rh- RBC": 0.39}
{"binder": "VHH 6.3 (VHH, llama VHH, Norwalk (GI.1) library; also called clone 6.3) VHH: QVQLQQSGGGLVQPGGSLRLSCAASGSIFSIHTMGWYRQAPGKQRELVTTITTGGTTNYADSVKGRFTISRDDAKNTVYLQMNNLKPEDTAVYYCYALIQTASTTWYRQYWGQGTQVTVSS", "unitAbbreviation": "µg/mL", "HAI titer, 0 Rh- RBC": 0.19}
{"binder": "VHH 14.5 (VHH, llama VHH, Norwalk library; pHEN6, C-terminal His6 tag) VHH: DVQLQASGGGLVQAGGSLRLSCVASARTFSSYAMGWFRQAPGKEREFVAAISWSGASTDYADSVKGRFTISRDNAKKTVYLQMNTLKPEDTAVYYCAAHHITPTGSYYYSEPLPVDMVYDYWGQGTQVTVSS", "unitAbbreviation": "µg/mL", "HAI titer, 0 Rh- RBC": 0.78}
